- assay summary: Minimum inhibitory concentration against Streptococcus pyogenes 930MLSB
- Assay type: functional
MIC values by entry

smiles repr	MIC
CC[C@H]1OC(=O)[C@H](C)C(=O)[C@H](C)[C@@H](O[C@@H]2O[C@H](C)C[C@H](N(C)C)[C@H]2O)[C@](C)(OC/C=C/c2cccc3cccnc23)C[C@@H](C)C(=O)[C@H](C)[C@H]2NC(=O)O[C@@]21C	> 32 µg/mL

Ask | Specify reported MIC for the compound shown: CC[C@H]1OC(=O)[C@H](C)C(=O)[C@H](C)[C@@H](O[C@@H]2O[C@H](C)C[C@H](N(C)C)[C@H]2O)[C@](C)(OCCNCc2ccncc2)C[C@@H](C)C(=O)[C@H](C)[C@@H](O)[C@]1(C)O
Reply | > 100 µg/mL

Ask | Specify reported MIC for the compound shown: CC[C@H]1OC(=O)[C@H](C)C(=O)[C@H](C)[C@@H](O[C@@H]2O[C@H](C)C[C@H](N(C)C)[C@H]2O)[C@](C)(OCCNCc2ccccc2)C[C@@H](C)C(=O)[C@H](C)[C@@H](O)[C@]1(C)O
Reply | > 64 µg/mL

* * *

MIC values by entry
- assay summary: Minimum inhibitory concentration against Streptococcus pneumoniae 5737 MLSB
- Type: functional

smiles repr	MIC
CC[C@H]1OC(=O)[C@H](C)[C@@H](O[C@H]2C[C@@](C)(OC)[C@@H](O)[C@H](C)O2)[C@H](C)[C@@H](O[C@@H]2O[C@H](C)C[C@H](N(C)C)[C@H]2O)[C@](C)(O)C[C@@H](C)C(=O)[C@H](C)[C@@H](O)[C@]1(C)O	> 128 µg/mL
C=CCO[C@]1(C)C[C@@H](C)C(=O)[C@H](C)[C@H]2N(C)C(=O)O[C@]2(C)[C@@H](CC)OC(=O)[C@H](C)C(=O)[C@H](C)[C@H]1O[C@@H]1O[C@H](C)C[C@H](N(C)C)[C@H]1O	> 128 µg/mL
CC[C@H]1OC(=O)[C@H](C)C(=O)[C@H](C)[C@@H](O[C@@H]2O[C@H](C)C[C@H](N(C)C)[C@H]2O)[C@](C)(OCCNCCc2ccccc2)C[C@@H](C)C(=O)[C@H](C)[C@@H](O)[C@]1(C)O	> 128 µg/mL
CC[C@H]1OC(=O)[C@H](C)C(=O)[C@H](C)[C@@H](O[C@@H]2O[C@H](C)C[C@H](N(C)C)[C@H]2O)[C@](C)(OC/C=C/c2ccc3ncncc3c2)C[C@@H](C)C(=O)[C@H](C)[C@H]2NC(=O)O[C@@]21C	0.5 µg/mL
C=CCO[C@]1(C)C[C@@H](C)C(=O)[C@H](C)[C@@H](O)[C@](C)(O)[C@@H](CC)OC(=O)[C@H](C)C(=O)[C@H](C)[C@H]1O[C@@H]1O[C@H](C)C[C@H](N(C)C)[C@H]1O	> 128 µg/mL

Here's the next entry for you.
Ask | Specify reported MIC for the compound shown: CC[C@H]1OC(=O)[C@H](C)C(=O)[C@H](C)[C@@H](O[C@@H]2O[C@H](C)C[C@H](N(C)C)[C@H]2O)[C@](C)(OCC=Cc2cnc3ccccc3c2)C[C@@H](C)C(=O)[C@H](C)[C@H]2NC(=O)O[C@@]21C
Reply | 0.25 µg/mL

* * *

- assay summary: Minimum inhibitory concentration against Streptococcus pneumoniae 5737 MLSB
- Assay type: functional
result type: MIC (µg/mL)

smiles repr	MIC / µg/mL
CC[C@H]1OC(=O)[C@H](C)C(=O)[C@H](C)[C@@H](O[C@@H]2O[C@H](C)C[C@H](N(C)C)[C@H]2O)[C@](C)(OC/C=C/c2ccccc2)C[C@@H](C)C(=O)[C@H](C)[C@H]2NC(=O)O[C@@]21C	64

[a] CC[C@H]1OC(=O)[C@H](C)C(=O)[C@H](C)[C@@H](O[C@@H]2O[C@H](C)C[C@H](N(C)C)[C@H]2O)[C@](C)(OC/C=C/c2ccc3ccccc3n2)C[C@@H](C)C(=O)[C@H](C)[C@H]2NC(=O)O[C@@]21C
[b] CC[C@H]1OC(=O)[C@H](C)C(=O)[C@H](C)[C@@H](O[C@@H]2O[C@H](C)C[C@H](N(C)C)[C@H]2O)[C@](C)(OC/C=C/c2cnc3sccc3c2)C[C@@H](C)C(=O)[C@H](C)[C@H]2NC(=O)O[C@@]21C
[c] CC[C@H]1OC(=O)[C@H](C)C(=O)[C@H](C)[C@@H](O[C@@H]2O[C@H](C)C[C@H](N(C)C)[C@H]2O)[C@](C)(OC/C=C/c2cnc3nccnc3c2)C[C@@H](C)C(=O)[C@H](C)[C@H]2NC(=O)O[C@@]21C
[d] CC[C@H]1OC(=O)[C@H](C)C(=O)[C@H](C)[C@@H](O[C@@H]2O[C@H](C)C[C@H](N(C)C)[C@H]2O)[C@](C)(OCCCc2cnc3ccccc3c2)C[C@@H](C)C(=O)[C@H](C)[C@H]2NC(=O)O[C@@]21C
Ask | Rank order required: MIC, descending. Lab note: record answer as labels in requested order.
Reply | a, d, c, b

* * *

MIC values by entry
- assay summary: Minimum inhibitory concentration against Streptococcus pneumoniae 5737 MLSB
- Assay type: functional

Before answering, review these 2 worked examples.
smiles repr	MIC
CC[C@H]1OC(=O)[C@H](C)C(=O)[C@H](C)[C@@H](O[C@@H]2O[C@H](C)C[C@H](N(C)C)[C@H]2O)[C@](C)(OC/C=C/c2cccc3cccnc23)C[C@@H](C)C(=O)[C@H](C)[C@H]2NC(=O)O[C@@]21C	> 32 µg/mL
CC[C@H]1OC(=O)[C@H](C)C(=O)[C@H](C)[C@@H](O[C@@H]2O[C@H](C)C[C@H](N(C)C)[C@H]2O)[C@](C)(OCCNCc2ccnc3ccccc23)C[C@@H](C)C(=O)[C@H](C)[C@@H](O)[C@]1(C)O	> 128 µg/mL

Here's the next entry for you.
Ask | Specify reported MIC for the compound shown: CC[C@H]1OC(=O)[C@H](C)C(=O)[C@H](C)[C@@H](O[C@@H]2O[C@H](C)C[C@H](N(C)C)[C@H]2O)[C@](C)(OC/C=C/c2ccc3ccccc3c2)C[C@@H](C)C(=O)[C@H](C)[C@H]2NC(=O)O[C@@]21C
Reply | > 128 µg/mL
